Acetylcholinesterase (Homo sapiens, UniProt P22303) measurements of pIC50, listed per entry.
Sequence (P22303 whole entry): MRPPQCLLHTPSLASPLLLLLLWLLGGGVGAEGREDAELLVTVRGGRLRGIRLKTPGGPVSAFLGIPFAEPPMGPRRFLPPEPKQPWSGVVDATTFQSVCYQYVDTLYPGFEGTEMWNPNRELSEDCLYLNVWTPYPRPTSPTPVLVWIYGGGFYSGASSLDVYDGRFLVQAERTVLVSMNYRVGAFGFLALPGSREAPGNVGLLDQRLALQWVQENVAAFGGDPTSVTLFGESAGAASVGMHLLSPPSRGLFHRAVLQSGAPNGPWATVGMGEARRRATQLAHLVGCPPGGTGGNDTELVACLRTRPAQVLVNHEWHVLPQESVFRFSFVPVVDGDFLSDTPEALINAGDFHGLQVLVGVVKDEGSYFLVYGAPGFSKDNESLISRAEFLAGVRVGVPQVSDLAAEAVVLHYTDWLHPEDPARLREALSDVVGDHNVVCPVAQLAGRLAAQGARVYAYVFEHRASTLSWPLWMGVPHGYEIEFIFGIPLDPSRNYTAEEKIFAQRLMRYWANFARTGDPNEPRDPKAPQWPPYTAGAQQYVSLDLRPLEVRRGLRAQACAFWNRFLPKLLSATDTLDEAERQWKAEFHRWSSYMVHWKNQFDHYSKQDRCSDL
Give bare numbers, as −log10 of the molar value.

COc1ccc2[nH]cc(CCNC(=O)c3ccc(CN(C)Cc4ccccc4Cl)cc3)c2c1 : 5.59

For each of the compounds below, state pIC50.
1. CN(Cc1ccccc1)Cc1ccc(C(=O)NCCc2c[nH]c3ccccc23)cc1
2. COc1ccc2[nH]cc(CCNC(=O)c3ccc(CN(C)Cc4ccccc4)cc3)c2c1
3. CN(Cc1ccc(C(=O)NCCc2c[nH]c3ccccc23)cc1)Cc1ccccc1Cl

**Result**
[5.72, 5.21, 5.42]

----------
So I've got a bunch of compounds here, and I need their Activity values.
experiment: Antioxidant activity assessed as oxygen radical absorbance capacity after 15 mins fluorescence assay relative to trolox; type: functional
Numbers only.

CN(Cc1ccc(C(=O)NCCc2c[nH]c3ccccc23)cc1)Cc1ccccc1Cl : 2.8

For each of the compounds below, state Activity.
1. COc1ccc2[nH]cc(CCNC(C)=O)c2c1
2. CN(Cc1ccc(C(=O)NCCc2c[nH]c3ccccc23)cc1)Cc1cccc(Cl)c1
3. COc1ccccc1CN(C)Cc1ccc(C(=O)NCCc2c[nH]c3ccccc23)cc1
4. COc1ccc2c(CCNC(=O)c3ccc(CN(C)Cc4ccccc4)cc3)c[nH]c2c1

**Result**
[2.4, 2.9, 2.9, 1.5]

For each of the compounds below, state Activity.
1. COc1ccc2c(CCNC(=O)c3ccc(CN(C)Cc4cccc(Cl)c4)cc3)c[nH]c2c1
2. COc1ccc2[nH]cc(CCNC(=O)c3ccc(CN(C)Cc4ccccc4)cc3)c2c1
3. CN(Cc1ccccc1)Cc1ccc(C(=O)NCCc2c[nH]c3ccc(O)cc23)cc1
4. COc1ccc2[nH]cc(CCNC(=O)c3ccc(CN(C)Cc4ccccc4OC)cc3)c2c1
5. CN(Cc1ccccc1)Cc1ccc(C(=O)NCCc2c[nH]c3cc(F)ccc23)cc1

**Result**
1. 1.8
2. 2.5
3. 4.3
4. 2.4
5. 2.1

Entry source: ChEMBL document CHEMBL3259799
